test system: NCI-H23 lung; assay: NCI-60 one-dose screen, 48 h; settings: 10 µM unless noted
About 83,000 compounds went through this panel and 20% of them were active in at least one assay; those are over-represented in the sample as a whole. Calls of active or inactive are those of the source. How the source made its calls: active means growth percent below 10; inactive means the rest.
Your response should consist of one outcome taken from active, inactive

A selection of reference data follows.
COc1ccc(C(O)c2cc3c(N)c(C(=O)Nc4cccc(Cl)c4C)sc3nc2C)cc1 (stereo unspecified)	inactive
CN(C)CCN1C(=O)c2cccc3c(/C=C/CN4C(=O)c5cccc6cccc(c56)C4=O)ccc(c23)C1=O	inactive
COc1ccc(C(=O)/C=C/c2ccc(N3CCCCC3)cc2)cc1OC	inactive
COC(=O)c1c2c(c(C)[n+]([O-])c1C)C(=O)C(NCc1cccc(Cl)c1)=CC2=O	inactive
N#Cc1cccc(C2C3=C(COC3=O)N(CCO)c3cc4c(cc32)OCO4)c1 (stereo unspecified)	inactive
N#C/C(=C\c1ccc(-c2cccc(C(F)(F)F)c2)o1)c1ccccc1	inactive

**Q:** Which outcome was entered for the compound COc1ccc(-c2cc(-c3ccccc3)nc(N3CCN(CCNc4ccnc5cc(Cl)ccc45)CC3)n2)cc1 in this test?
**A:** inactive

**Q:** Request: CCN(CC)CCN1C(=O)c2c(c(C)c3c(oc4ccc(O)cc43)c2C)C1=O
**A:** inactive

**Q:** Request: O=C(N/N=C\c1cccc([N+](=O)[O-])c1)N/N=C/c1cccc([N+](=O)[O-])c1
**A:** inactive

**Q:** Request: CCNc1nc(O)c(/C=C2\C=Nc3ncccc32)s1
**A:** active

**Q:** Request: COc1ccc(Nc2ncccc2/C=C/C(=O)c2cc(OC)c(OC)c(OC)c2)cc1
**A:** active

**Q:** Request: O=C(c1c[nH]c2ccccc12)c1n[nH]c(=S)n1-c1cccc(Br)c1
**A:** inactive

**Q:** Request: COC(=O)CC[C@@H]1O[C@@H](c2ccc(F)cc2)[C@@H](O)[C@H]1O
**A:** inactive

**Q:** Request: CCN(CC)Cc1cc(Nc2ccnc3cc(Cl)ccc23)ccc1O
**A:** inactive

**Q:** Request: N#Cc1ccc(O)c(C2=NCC(Cc3ccccc3)O2)c1 (stereo unspecified)
**A:** inactive

**Q:** Request: O=C(N/N=C\c1ccccc1S(=O)(=O)O)N/N=C/c1ccccc1S(=O)(=O)O
**A:** inactive

**Q:** Request: COC(=O)c1cc(Br)ccc1O
**A:** inactive
